# TARGET UNDER TEST: T1, human OT7T175 (metastin receptor) (human, UniProt Q969F8 1-398)
# T1 construct: expressed on CHO cells (hOT7T175-expressed CHO cells; hOT7T175/CHO); also called hOT7T175; h0T7T175
# T1 sequence (Q969F8 whole entry L364H): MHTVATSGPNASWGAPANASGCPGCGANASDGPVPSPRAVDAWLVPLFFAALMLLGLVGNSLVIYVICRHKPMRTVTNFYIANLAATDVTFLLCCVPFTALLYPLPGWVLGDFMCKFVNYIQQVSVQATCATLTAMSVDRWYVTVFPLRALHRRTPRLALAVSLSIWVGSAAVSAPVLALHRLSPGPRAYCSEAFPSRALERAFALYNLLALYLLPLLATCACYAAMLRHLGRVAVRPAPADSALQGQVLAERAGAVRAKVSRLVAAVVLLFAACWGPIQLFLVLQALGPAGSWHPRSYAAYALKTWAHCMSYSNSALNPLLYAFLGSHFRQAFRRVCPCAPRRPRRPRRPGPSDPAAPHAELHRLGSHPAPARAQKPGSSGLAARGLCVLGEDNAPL
# EXPERIMENT DESCRIPTION: FMAT competition with Cy-5-labeled metastin (40-54), hOT7T175-expressed CHO cells
Square brackets hold non-standard residues; d marks the D form. Ends that are not written are not given here. Phe(4-F) = N[C@@H](Cc1ccc(F)cc1)C(=O)O; Arg(Me) = CNC(=N)NCCC[C@H](N)C(=O)O; 4Pal = N[C@@H](Cc1ccncc1)C(=O)O; d3Pal = N[C@H](Cc1cccnc1)C(=O)O; azaGly = NNC(=O)O
Measured IC50 accompanies every entry in the list below.
Write the number in nM without appending the unit.

Use the examples below as a reference point.
YNWNSXGLRF (Cha6; C-terminal amide) [Compound No. 156: [Cha6]MS10]; 49
[dY][dN][4Pal]NSF[azaGly]L[Arg(Me)][Phe(4-F)]-NH2 (N-terminus assumed; SMILES CNC(=N)NCCC[C@H](NC(=O)[C@H](CC(C)C)NC(=O)NNC(=O)[C@H](Cc1ccccc1)NC(=O)[C@H](CO)NC(=O)[C@H](CC(N)=O)NC(=O)[C@H](Cc1ccncc1)NC(=O)[C@@H](CC(N)=O)NC(=O)[C@H](N)Cc1ccc(O)cc1)C(=O)N[C@@H](Cc1ccc(F)cc1)C(N)=O) [Compound No. 317: [D-Tyr1,D-Asn2,Pya(4) 3,AzaGly7,Arg(Me)9,Phe(4F)10]MS10]; 2.1

Please find the next binder below.
IC50 lookup needed for [d3Pal]FNSF[azaGly]L[Arg(Me)]F-NH2 [Compound No. 256: des(1)-[D-Pya(3) 2,Phe3,AzaGly7,Arg(Me)9]MS10] , thanks. 22
